assay: Nephroprotective activity in serum deprived rat Glomerular mesangial cells assessed as fibronectin protein expression in presence of 25 mM glucose at 5 uM after 48 hrs by Western blot analysis (reference value: 270.11 +/- 19.17%); type: functional
Mark condition met for Activity under 200%, condition not met if at or over.

structure_string=O=C(CCn1ccc(=O)[nH]c1=O)NNc1nc(NNC(=O)CCn2ccc(=O)[nH]c2=O)nc(NNC(=O)CCn2ccc(=O)[nH]c2=O)n1 qualitative_label="condition met"
structure_string=O=C(CCn1ccc(=O)[nH]c1=O)NNc1nc(Cl)nc(NNC(=O)CCn2ccc(=O)[nH]c2=O)n1 qualitative_label="condition met"
structure_string=Cc1cn(CCC(=O)NNc2nc(Cl)nc(NNC(=O)CCn3cc(C)c(=O)[nH]c3=O)n2)c(=O)[nH]c1=O qualitative_label="condition met"
structure_string=Cc1cn(CCC(=O)NN)c(=O)nc1O qualitative_label="condition not met"
structure_string=Cc1cn(CCC(=O)NNc2nc(NNC(=O)CCn3ccc(=O)[nH]c3=O)nc(NNC(=O)CCn3cc(C)c(=O)[nH]c3=O)n2)c(=O)[nH]c1=O qualitative_label="condition met"
structure_string=Cc1cn(CCC(=O)NNc2nc(NNC(=O)CCn3cc(C)c(=O)[nH]c3=O)nc(NNC(=O)CCn3cc(C)c(=O)[nH]c3=O)n2)c(=O)[nH]c1=O qualitative_label="condition met"
structure_string=NNC(=O)CCn1ccc(O)nc1=O qualitative_label="condition not met"
structure_string=Cc1cn(CCC(=O)NNc2nc(NNC(=O)CCn3ccc(=O)[nH]c3=O)nc(NNC(=O)CCn3ccc(=O)[nH]c3=O)n2)c(=O)[nH]c1=O qualitative_label="condition met"

All values here come from ChEMBL document CHEMBL4387727.
